# Binding recovery (>60%) per record follows
# assay-system: T1, IL-10R1-Fc (UniProt Q13651 22-235, limits assumed)
# T1 sequence (looked up): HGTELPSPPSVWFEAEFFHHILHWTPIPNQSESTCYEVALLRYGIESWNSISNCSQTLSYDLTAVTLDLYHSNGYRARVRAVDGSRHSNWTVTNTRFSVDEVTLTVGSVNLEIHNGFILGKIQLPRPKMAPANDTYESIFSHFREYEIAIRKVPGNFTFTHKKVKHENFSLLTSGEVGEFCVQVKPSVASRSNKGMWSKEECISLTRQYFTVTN
# assay: ELISA, IL-10R1-Fc coated
The answer is to be given in %; state only the numeric part.

>>> recorded_value("IL-10 Leu53Cys-R4-6 (ligand, human, UniProt P22301 19-178, looked up, R4-6 on Cys 53, mature) SPGQGTQSENSCTHFPGNLPNMLRDLRDAFSRVKTFFQMKDQLDNLLLKESLCEDFKGYLGCQALSEMIQFYLEEVMPQAENQDPDIKAHVNSLGENLKTLRLRLRRCHRFLPCENKSKAVEQVKNAFNKLQEKGIYKAMSEFDIFINYIEAYMTMKIRN")
99.4

Field: next binder
Query: Query (binder): IL-10 Asp41Cys-R4-11 (ligand, human, UniProt P22301 19-178, looked up, R4-11 on Cys 41, mature) SPGQGTQSENSCTHFPGNLPNMLRDLRDAFSRVKTFFQMKCQLDNLLLKESLLEDFKGYLGCQALSEMIQFYLEEVMPQAENQDPDIKAHVNSLGENLKTLRLRLRRCHRFLPCENKSKAVEQVKNAFNKLQEKGIYKAMSEFDIFINYIEAYMTMKIRN ; field requested: Binding recovery (>60%)
Result: 95.2
